Origin of values: ChEMBL document CHEMBL3352686

test: Terminal half life in BRCA mutation carrying cancer patient with sporadic cancer; settings: human, in vivo
VALUE KIND: half-life

Documented half-life of NC(=O)c1cccc2cn(-c3ccc([C@@H]4CCCNC4)cc3)nc12 : 36.4 h

* * *

target: Serine/threonine-protein kinase mTOR (Homo sapiens, UniProt P42345)
VALUE KIND: pIC50
The quantity pIC50 is defined as the negative base-10 logarithm of the molar concentration.

Documented pIC50 of CC(C)(C#N)c1ccc(N2C(=O)OCc3cnc4ccc(-c5cnc6ccccc6c5)cc4c32)cc1 : 9.22

* * *

molecular target: DNA-dependent protein kinase catalytic subunit (Homo sapiens, UniProt P78527); assay: Inhibition of DNAPK (unknown origin)
VALUE KIND: IC50

So the reported IC50 for CC(C)(C#N)c1ccc(N2C(=O)OCc3cnc4ccc(-c5cnc6ccccc6c5)cc4c32)cc1 , on DNA-dependent protein kinase catalytic subunit (Homo sapiens, UniProt P78527), turned out to be > 0.036 µM

* * *

test: Half life in refractory solid tumor and lymphoma patient; conditions: human, in vivo
VALUE KIND: half-life (h)
Kindly provide the numeric value in h only, without the unit symbol.

Documented half-life of C[C@]1(c2nc3c(C(N)=O)cccc3[nH]2)CCCN1 : 5

* * *

biological target: Serine-protein kinase ATM (Homo sapiens)
Sequence (Q13315 whole entry): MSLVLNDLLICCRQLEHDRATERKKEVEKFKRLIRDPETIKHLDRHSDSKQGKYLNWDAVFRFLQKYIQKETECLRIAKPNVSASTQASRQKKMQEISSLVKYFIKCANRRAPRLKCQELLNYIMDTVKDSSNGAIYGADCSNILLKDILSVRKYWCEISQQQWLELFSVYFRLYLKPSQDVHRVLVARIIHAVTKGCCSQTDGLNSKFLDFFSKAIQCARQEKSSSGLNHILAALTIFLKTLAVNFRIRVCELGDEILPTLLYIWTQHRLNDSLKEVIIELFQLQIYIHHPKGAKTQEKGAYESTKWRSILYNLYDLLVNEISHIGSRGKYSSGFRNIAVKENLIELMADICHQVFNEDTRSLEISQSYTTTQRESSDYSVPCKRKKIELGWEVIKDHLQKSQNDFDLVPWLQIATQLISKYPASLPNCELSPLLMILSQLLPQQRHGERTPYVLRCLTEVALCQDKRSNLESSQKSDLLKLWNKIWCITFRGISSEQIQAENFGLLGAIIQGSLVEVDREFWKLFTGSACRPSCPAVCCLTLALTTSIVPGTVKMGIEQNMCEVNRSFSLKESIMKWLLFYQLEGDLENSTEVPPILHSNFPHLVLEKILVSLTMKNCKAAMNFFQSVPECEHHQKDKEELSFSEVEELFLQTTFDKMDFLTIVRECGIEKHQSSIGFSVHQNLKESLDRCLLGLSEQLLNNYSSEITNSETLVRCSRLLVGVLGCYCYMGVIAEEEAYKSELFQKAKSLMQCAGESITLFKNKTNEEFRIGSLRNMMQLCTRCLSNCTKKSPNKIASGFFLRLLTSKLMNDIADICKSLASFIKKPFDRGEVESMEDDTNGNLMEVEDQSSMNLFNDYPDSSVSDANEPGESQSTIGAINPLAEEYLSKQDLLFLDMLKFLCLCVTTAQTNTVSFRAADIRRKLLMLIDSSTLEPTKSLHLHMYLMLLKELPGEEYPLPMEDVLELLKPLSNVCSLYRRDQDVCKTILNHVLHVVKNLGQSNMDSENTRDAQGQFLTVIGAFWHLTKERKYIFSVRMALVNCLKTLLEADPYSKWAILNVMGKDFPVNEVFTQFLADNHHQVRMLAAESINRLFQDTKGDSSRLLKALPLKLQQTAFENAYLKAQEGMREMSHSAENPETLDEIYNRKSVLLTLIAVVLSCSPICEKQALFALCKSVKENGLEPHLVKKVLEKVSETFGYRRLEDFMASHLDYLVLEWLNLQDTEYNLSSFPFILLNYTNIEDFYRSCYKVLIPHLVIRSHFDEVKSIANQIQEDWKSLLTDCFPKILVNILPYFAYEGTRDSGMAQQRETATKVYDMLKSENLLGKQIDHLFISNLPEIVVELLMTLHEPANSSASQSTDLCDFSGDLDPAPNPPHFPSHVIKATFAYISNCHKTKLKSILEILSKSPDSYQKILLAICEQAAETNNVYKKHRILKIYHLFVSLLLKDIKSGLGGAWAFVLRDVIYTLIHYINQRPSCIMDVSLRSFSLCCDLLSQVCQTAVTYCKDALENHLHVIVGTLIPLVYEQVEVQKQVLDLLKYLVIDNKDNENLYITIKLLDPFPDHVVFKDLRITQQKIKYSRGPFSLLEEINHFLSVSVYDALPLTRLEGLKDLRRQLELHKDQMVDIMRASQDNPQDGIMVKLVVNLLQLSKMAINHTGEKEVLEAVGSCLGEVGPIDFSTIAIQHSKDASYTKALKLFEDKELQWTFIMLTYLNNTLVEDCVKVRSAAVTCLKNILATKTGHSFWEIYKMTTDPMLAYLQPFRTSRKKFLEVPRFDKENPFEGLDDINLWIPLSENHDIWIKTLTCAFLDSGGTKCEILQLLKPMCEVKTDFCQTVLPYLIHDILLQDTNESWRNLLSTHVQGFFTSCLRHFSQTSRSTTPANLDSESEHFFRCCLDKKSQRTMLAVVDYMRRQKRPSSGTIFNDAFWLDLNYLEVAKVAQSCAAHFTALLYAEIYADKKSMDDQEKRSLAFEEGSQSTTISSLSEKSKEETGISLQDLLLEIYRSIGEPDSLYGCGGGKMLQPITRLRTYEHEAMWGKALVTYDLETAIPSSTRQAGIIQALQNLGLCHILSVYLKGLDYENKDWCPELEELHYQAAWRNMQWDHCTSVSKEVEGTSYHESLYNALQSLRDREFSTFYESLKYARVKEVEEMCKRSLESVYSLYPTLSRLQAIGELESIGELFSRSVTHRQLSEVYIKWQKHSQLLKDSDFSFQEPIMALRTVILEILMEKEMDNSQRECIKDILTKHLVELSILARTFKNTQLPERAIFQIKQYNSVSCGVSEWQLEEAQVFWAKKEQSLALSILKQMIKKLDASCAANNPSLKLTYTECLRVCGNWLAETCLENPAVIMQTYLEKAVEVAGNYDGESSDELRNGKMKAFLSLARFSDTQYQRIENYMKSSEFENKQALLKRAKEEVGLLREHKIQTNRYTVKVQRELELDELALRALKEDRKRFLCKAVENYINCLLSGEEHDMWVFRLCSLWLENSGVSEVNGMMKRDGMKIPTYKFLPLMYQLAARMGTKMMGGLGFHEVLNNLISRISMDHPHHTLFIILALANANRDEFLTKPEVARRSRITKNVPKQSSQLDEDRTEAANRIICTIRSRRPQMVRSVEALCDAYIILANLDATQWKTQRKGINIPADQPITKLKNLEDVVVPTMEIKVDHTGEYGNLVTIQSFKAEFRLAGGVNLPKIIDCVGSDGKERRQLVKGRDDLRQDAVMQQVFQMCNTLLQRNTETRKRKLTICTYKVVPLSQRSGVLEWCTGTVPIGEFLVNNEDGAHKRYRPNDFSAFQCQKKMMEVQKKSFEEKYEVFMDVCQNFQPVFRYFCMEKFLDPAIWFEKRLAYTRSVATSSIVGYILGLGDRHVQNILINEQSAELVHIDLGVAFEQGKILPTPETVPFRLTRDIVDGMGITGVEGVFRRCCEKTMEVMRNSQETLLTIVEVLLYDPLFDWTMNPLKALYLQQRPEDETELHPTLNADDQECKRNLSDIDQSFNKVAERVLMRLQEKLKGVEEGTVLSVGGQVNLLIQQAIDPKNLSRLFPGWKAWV
VALUE KIND: IC50

So the reported IC50 for CC(C)(C#N)c1ccc(N2C(=O)OCc3cnc4ccc(-c5cnc6ccccc6c5)cc4c32)cc1 , on Serine-protein kinase ATM (Homo sapiens), turned out to be > 36 nM
